Assay: Human HepG2 cell viability assay in 384 well format
Format: toxicity, cell-based
Parameters: dose 125 nL, time 70.5 hour; concentration not given beside the values
Details: HepG2 cells, read-out: Inhibition
Value type: cytotoxicity at 70.5 h (%)

[
  {
    "Molecule": "CC(CN1CCOCC1)OC(=O)c1cccc2cn[nH]c12 (stereo not given)",
    "Result unit": "%",
    "Recorded measurement": 12
  },
  {
    "Molecule": "CCc1ncc(CN(C)C(=O)Nc2cccnc2N2CCCC2)s1",
    "Result unit": "%",
    "Recorded measurement": 0.712
  },
  {
    "Molecule": "Cc1nc(CNC(=O)Nc2ccc3c(ccn3CCN(C)C)c2)no1",
    "Result unit": "%",
    "Recorded measurement": -2.87
  },
  {
    "Molecule": "Cc1ccc(S(=O)(=O)N2CC[C@H]3CO[C@H](CN(C)C)[C@H]3C2)cc1",
    "Result unit": "%",
    "Recorded measurement": -6.81
  },
  {
    "Molecule": "CC(C)(C)NC(=O)NCc1cnn2ccccc12",
    "Result unit": "%",
    "Recorded measurement": -9.3
  },
  {
    "Molecule": "Cc1cccc(C)c1CN1C(=O)CC2(CCSC2)C1=O (stereo not given)",
    "Result unit": "%",
    "Recorded measurement": 0.0631
  },
  {
    "Molecule": "CN1CCN(c2ncccn2)CC1C(N)=O (stereo not given)",
    "Result unit": "%",
    "Recorded measurement": 36.7
  },
  {
    "Molecule": "COc1cc(Nc2c(C#N)c(=O)n(C)c(=O)n2C)cc(OC)c1",
    "Result unit": "%",
    "Recorded measurement": -6.16
  },
  {
    "Molecule": "COc1ccc(OC)c(CNCc2ccnc(N3CCOCC3)c2)c1",
    "Result unit": "%",
    "Recorded measurement": -4.43
  },
  {
    "Molecule": "CC(Cn1cncn1)NC(=O)Nc1ccc(F)cc1OCC1CC1 (stereo not given)",
    "Result unit": "%",
    "Recorded measurement": -9.35
  },
  {
    "Molecule": "COCCN1CCC(NC(=O)C2(c3cc(C)cc(C)c3)CC2)CC1",
    "Result unit": "%",
    "Recorded measurement": -11.3
  },
  {
    "Molecule": "Cc1ccccc1C1(C(=O)NCCN(C(C)C)C(C)C)CCOCC1",
    "Result unit": "%",
    "Recorded measurement": -10
  },
  {
    "Molecule": "Cc1cccc(N2CCN(C(=O)C3CC4(CCNCC4)CN3)CC2)n1 (stereo not given)",
    "Result unit": "%",
    "Recorded measurement": 5.27
  },
  {
    "Molecule": "O=S(=O)(NCC1CCN(c2ccccn2)CC1)c1ccccc1F",
    "Result unit": "%",
    "Recorded measurement": 33.3
  },
  {
    "Molecule": "OC(c1ccccn1)C1CCN(Cc2cc3n(n2)CCCNC3)CC1 (stereo not given)",
    "Result unit": "%",
    "Recorded measurement": -21
  },
  {
    "Molecule": "CC(C)CCN(C(=O)Nc1cccc(C(=O)N(C)C)c1)C1CC1",
    "Result unit": "%",
    "Recorded measurement": -7.58
  },
  {
    "Molecule": "O=C1CC2(CCN(C(=O)c3csc(-c4ccccc4)n3)C2)C(=O)N1 (stereo not given)",
    "Result unit": "%",
    "Recorded measurement": -5.85
  },
  {
    "Molecule": "CC(=O)N1CCN(CC2CCOc3ccccc3C2)CC1 (stereo not given)",
    "Result unit": "%",
    "Recorded measurement": -1.42
  },
  {
    "Molecule": "COCCN1CCC2(CC1)CC(c1ccccc1)C(=O)N2C (stereo not given)",
    "Result unit": "%",
    "Recorded measurement": -7.45
  },
  {
    "Molecule": "CCOCCN1CCC(C(=O)c2cc(F)ccc2F)CC1",
    "Result unit": "%",
    "Recorded measurement": 17.7
  },
  {
    "Molecule": "O=C(c1cccc(S(=O)(=O)NCCc2nccs2)c1)N1CCOCC1",
    "Result unit": "%",
    "Recorded measurement": -3.1
  },
  {
    "Molecule": "COC(C)c1noc(CN2CCCNCC2)n1 (stereo not given)",
    "Result unit": "%",
    "Recorded measurement": -10
  },
  {
    "Molecule": "CCOCC(=O)Nc1cccc(Oc2ccccn2)c1",
    "Result unit": "%",
    "Recorded measurement": -3.31
  },
  {
    "Molecule": "COc1ccc(-c2cc(N)on2)cc1OC",
    "Result unit": "%",
    "Recorded measurement": -2.02
  },
  {
    "Molecule": "O=C1CO[C@@H]2CNC[C@H]2N1CC1CC1",
    "Result unit": "%",
    "Recorded measurement": 2.73
  }
]

====

Assay: Human HepG2 cell viability assay in 384 well format
Format: toxicity, cell-based
Set-up: dose 125 nL, time 70.5 hour; concentration not given beside the values
Settings: HepG2 cells, read-out: Inhibition
Value type: cytotoxicity at 70.5 h (%)

[
  {
    "Compound": "NCCn1nc(C2CCN(Cc3ccccc3)C2)c2nccnc21 (stereo unspecified)",
    "Value type": "cytotoxicity at 70.5 h",
    "Result unit": "%",
    "Recorded measurement": 0.0423
  },
  {
    "Compound": "Cc1ncc2c(n1)CN(CCCOc1ccc(C#N)cc1)CC2",
    "Value type": "cytotoxicity at 70.5 h",
    "Result unit": "%",
    "Recorded measurement": 3.97
  },
  {
    "Compound": "Cc1nc(O)cc(C2CCCN2CCO)n1 (stereo unspecified)",
    "Value type": "cytotoxicity at 70.5 h",
    "Result unit": "%",
    "Recorded measurement": -5.13
  },
  {
    "Compound": "CCn1cnc(NC(=O)N2CCCC(c3ccccc3)CC2)n1 (stereo unspecified)",
    "Value type": "cytotoxicity at 70.5 h",
    "Result unit": "%",
    "Recorded measurement": -6.51
  },
  {
    "Compound": "CSc1ncc(C(=O)N2CCN(c3ccccc3C)CC2C)cn1 (stereo unspecified)",
    "Value type": "cytotoxicity at 70.5 h",
    "Result unit": "%",
    "Recorded measurement": -2.82
  },
  {
    "Compound": "O=C1CC(c2ccncc2)c2c(c(C(=O)O)cn2-c2ccc(F)cc2)N1 (stereo unspecified)",
    "Value type": "cytotoxicity at 70.5 h",
    "Result unit": "%",
    "Recorded measurement": -6.2
  }
]

====

Test: Human HepG2 cell viability assay in 384 well format
Assay type: toxicity, cell-based
Parameters: dose 125 nL, time 70.5 hour; concentration not given beside the values
Conditions: HepG2 cells, read-out: Inhibition
cytotoxicity at 70.5 h overview

[
  {
    "Compound": "Cc1c(C(=O)N2C[C@@H](CN(C)CCO)[C@@H](CO)C2)sc2ccccc12",
    "Result unit": "%",
    "cytotoxicity at 70.5 h": -9.44
  },
  {
    "Compound": "COc1ccc(-c2cnc(CN(CC(N)=O)C3CCCC3)o2)cc1",
    "Result unit": "%",
    "cytotoxicity at 70.5 h": -11.2
  },
  {
    "Compound": "O=C(c1cccnc1)N1Cc2ccccc2OCC1Cn1ccnc1 (stereo unspecified)",
    "Result unit": "%",
    "cytotoxicity at 70.5 h": 9.81
  },
  {
    "Compound": "N[C@H]1CN(S(=O)(=O)c2cccnc2)C[C@@H]1C1CC1",
    "Result unit": "%",
    "cytotoxicity at 70.5 h": -4.49
  },
  {
    "Compound": "Cc1cccc(C(=O)N2CCCCC2c2nc3cc(F)ccc3[nH]2)n1 (stereo unspecified)",
    "Result unit": "%",
    "cytotoxicity at 70.5 h": -11.8
  },
  {
    "Compound": "CCCC(=O)N1C[C@@H]2CCN(c3cnccn3)C[C@@H]2C1",
    "Result unit": "%",
    "cytotoxicity at 70.5 h": 8.32
  },
  {
    "Compound": "NC(=O)CN1CCC2(CC1)CC(=O)c1ccc3ccccc3c1O2",
    "Result unit": "%",
    "cytotoxicity at 70.5 h": -2.33
  },
  {
    "Compound": "Clc1ccc2c(c1)C=C(CNC1CCc3ncnn3C1)CO2 (stereo unspecified)",
    "Result unit": "%",
    "cytotoxicity at 70.5 h": -7.55
  },
  {
    "Compound": "CCCn1nc2c(cc1=O)CN(Cc1cc(C)on1)CC2",
    "Result unit": "%",
    "cytotoxicity at 70.5 h": 4.88
  },
  {
    "Compound": "CNS(=O)(=O)CCn1cc(-c2ccc(OC)c(OC)c2)nn1",
    "Result unit": "%",
    "cytotoxicity at 70.5 h": -4.16
  },
  {
    "Compound": "N[C@H]1CN(C(=O)c2ccccc2OCc2ccccc2)C[C@@H]1C1CC1",
    "Result unit": "%",
    "cytotoxicity at 70.5 h": -11.7
  }
]
